Below: a set of entries, each annotated with reported IC50.
- Measured Target: T1, hCD112R mFC recombinant protein (human; murine, UniProt Q6DKI7 41-160)
- T1 construct: range 41-160; expressed in 293E cells; also called hCD112R ECD mFC; hCD112R-ECD-mFC; not shown: murine IgG2a Fc domain (MX2-mFc vector)
- T1 sequence (looked up): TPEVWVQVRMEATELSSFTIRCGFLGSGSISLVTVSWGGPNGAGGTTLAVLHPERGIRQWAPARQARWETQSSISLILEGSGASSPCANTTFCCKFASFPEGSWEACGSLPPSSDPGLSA
- Assay Notes: FACS blocking: hCD112R mFc (5 µg/mL) binding to human CD112 on CHO CD112 cells, MFI-APC; unit from the axis (µg/mL), Table 8 says ng/ml

>  <Binder>
Chi-53 (antibody, V domains shown, chimeric) VH: DVKLVESGGGLVKLGGSLKLSCAASGFTFSSYHMSWIRQTPEKRLELVAAINSNGINTYYLDTVKGRFTISRDNAKNTLYLQMSSLKSEDTALYYCARHEDYYGFAMDYWGQGTSVTVSS VL: SIVMTQTPKFLLVSAGDRVTITCKASQSVSNDVAWYQEKPGQSPKLLMYYVSHRFTGVPDRFTGSGYGTDFTFTINTVQAEDLAVYFCHQAYRSPWTFGGGTKLEIK

>  <IC50 (µg/mL)>
0.979

$$$$
>  <Binder>
Chi-71 (antibody, V domains shown, chimeric) VH: DVQLVESGGGLVKLGGSLKLSCVASGFTFSSYHMSWIRQTPEKRLELVAAINSNDINTYYLDTVKGRFTISRDIAKNTLHLQMSSLKSEDTALYYCARHEDYYGFAMDYWGQGTSVTVSS VL: SIVMTQTPKFLLVSAGDRVTITCKASQSVTNDVAWYQQKPGQSPKLLMYYVSNHYTGVPDRFIGSGYGTDFTFTISTVQAEDLAVYFCQQAYRSPWTFGGGTKLEIK

>  <IC50 (µg/mL)>
0.733

$$$$
>  <Binder>
Chi-55 (antibody, V domains shown, chimeric) VH: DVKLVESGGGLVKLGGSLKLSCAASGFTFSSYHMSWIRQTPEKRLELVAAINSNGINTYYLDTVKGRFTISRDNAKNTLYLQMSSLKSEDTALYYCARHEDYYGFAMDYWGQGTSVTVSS VL: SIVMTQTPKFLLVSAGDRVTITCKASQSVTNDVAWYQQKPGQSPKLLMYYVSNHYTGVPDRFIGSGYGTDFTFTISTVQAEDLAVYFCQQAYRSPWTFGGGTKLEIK

>  <IC50 (µg/mL)>
1.02

$$$$
>  <Binder>
Chi-62 (antibody, V domains shown, chimeric) VH: DVKLVESGGGLVKLGGSLKLSCAASGFTFSSYHMSWVRQTPEKRLELVAAISRDGDSTYYPDTVKGRFTISRDDAENTLYLQMSSLKSEDTALYYCSRHEDYFGFAMDSWGQGTSVTVSS VL: SIVMTQTPKFLLVSAGDRVTITCKASQSVSNDVAWYQQKPGQSPKLLMYYVSNRFTGVPDRFTGSGYGTDFTFTINTVQAEDLAVYFCQQAYRSPWTFGGGTKLEIK

>  <IC50 (µg/mL)>
0.964

$$$$
>  <Binder>
Chi-46 (antibody, V domains shown, chimeric) VH: DVKLVESGGGLVKLGGSLKLSCAASGFTFSSYHMSWVRQTPEKRLELVAAINSNVISTYYLDTVKGRFTISRDNAKNTLYLQMSSLKSEDTALYYCARHEDYYGFAMDYWGQGTSVTVSS VL: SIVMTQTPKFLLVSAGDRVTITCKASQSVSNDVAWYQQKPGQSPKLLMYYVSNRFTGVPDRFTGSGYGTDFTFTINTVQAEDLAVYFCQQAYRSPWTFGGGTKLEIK

>  <IC50 (µg/mL)>
0.8

$$$$
>  <Binder>
Chi-69 (antibody, V domains shown, chimeric) VH: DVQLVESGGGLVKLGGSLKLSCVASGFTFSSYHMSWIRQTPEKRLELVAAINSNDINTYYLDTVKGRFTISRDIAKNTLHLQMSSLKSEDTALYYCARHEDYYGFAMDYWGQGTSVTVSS VL: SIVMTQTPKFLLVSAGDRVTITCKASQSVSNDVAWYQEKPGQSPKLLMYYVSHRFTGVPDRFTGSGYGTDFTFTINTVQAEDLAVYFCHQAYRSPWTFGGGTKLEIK

>  <IC50 (µg/mL)>
0.959

$$$$
>  <Binder>
Chi-47 (antibody, V domains shown, chimeric) VH: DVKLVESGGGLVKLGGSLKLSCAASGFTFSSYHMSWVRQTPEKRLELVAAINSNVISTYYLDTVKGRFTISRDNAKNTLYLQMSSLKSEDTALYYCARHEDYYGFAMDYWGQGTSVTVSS VL: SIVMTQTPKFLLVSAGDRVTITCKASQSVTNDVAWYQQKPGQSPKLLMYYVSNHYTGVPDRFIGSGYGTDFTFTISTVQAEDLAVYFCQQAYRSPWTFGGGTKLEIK

>  <IC50 (µg/mL)>
0.876

$$$$
